This collection of values is drawn from ChEMBL document CHEMBL3868630.

run-description: Cytotoxicity against human A549 cells assessed as decrease in cell viability after 72 hrs by MTT assay
Assay type: functional, cell-based
assay-setup: A549, 72 h
Items are presented alongside their recorded pIC50.
Conceptually, pIC50 converts a concentration in mol/L into minus its log10.

Worked set:
chemical-string | readout-kind | reported
CCCc1n(Cc2ccc3ccccc3c2)c2ccccc2[n+]1Cc1ccc2ccccc2c1.[Br-] | pIC50 | 5.70
COCCOCCOCc1n(Cc2ccc3ccccc3n2)c2ccccc2[n+]1Cc1ccc2ccccc2c1.[Br-] | pIC50 | 5.52
OCCCc1n(Cc2ccc3ccccc3n2)c2ccccc2[n+]1Cc1ccc2ccccc2n1.[Cl-] | pIC50 | 4.60
COCCOCCOCc1n(Cc2ccc3ccccc3c2)c2cc(C)c(C)cc2[n+]1Cc1ccc2ccccc2c1.[Br-] | pIC50 | 5.70
Cc1cc2c(cc1C)[n+](Cc1ccc3ccccc3c1)cn2Cc1ccc2ccccc2c1.[Br-] | pIC50 | 5.52

[ask] Entry COC(=O)Cc1n(Cc2ccc3ccccc3c2)c2ccccc2[n+]1Cc1ccc2ccccc2c1.[Br-] has what pIC50?
[reply] 5.10

[ask] Then what about the molecule COC(=O)c1cc2c(cc1C(=O)OC)[n+](Cc1ccc3ccccc3c1)cn2Cc1ccc2ccccc2c1.[Br-] ?
[reply] 4.64

[ask] Please answer likewise for O=C(OCc1ccc2ccccc2c1)c1ccc2c(c1)n(Cc1ccc3ccccc3c1)c[n+]2Cc1ccc2ccccc2c1.[Br-]
[reply] 5.15

[ask] Another molecule to check: COCCOCCOCc1n(Cc2ccc3ccccc3c2)c2ccccc2[n+]1Cc1ccc2ccccc2c1.[Br-]
[reply] 5.30

[ask] Continue with OCCCc1n(Cc2ccc3ccccc3n2)c2ccccc2[n+]1Cc1ccc2ccccc2c1.[Br-]
[reply] 4.92

----------
run-description: Growth inhibition of human HOP62 cells after 48 hrs by SRB assay
Assay type: functional
assay-setup: HOP-62, 48 h
# TGI listing for each entry below

chemical-string | TGI
CCCc1n(Cc2ccc3ccccc3c2)c2ccccc2[n+]1Cc1ccc2ccccc2c1.[Br-] | 2030 nM
Cc1n(Cc2ccc3ccccc3c2)c2ccccc2[n+]1Cc1ccc2ccccc2c1.[Br-] | 3240 nM
COCCOCCOCc1n(Cc2ccc3ccccc3n2)c2ccccc2[n+]1Cc1ccc2ccccc2c1.[Br-] | 2520 nM
OCCCc1n(Cc2ccc3ccccc3c2)c2ccccc2[n+]1Cc1ccc2ccccc2c1.[Br-] | 11600 nM
Cc1cc2c(cc1C)[n+](Cc1ccc3ccccc3n1)cn2Cc1ccc2ccccc2n1.[Cl-] | 3130 nM
CCCCc1n(Cc2ccc3ccccc3c2)c2ccccc2[n+]1Cc1ccc2ccccc2c1.[Br-] | 2550 nM

[ask] Fill in the blank: the reported TGI of [Cl-].c1ccc2nc(Cn3c[n+](Cc4ccc5ccccc5n4)c4ccccc43)ccc2c1 is ____.
[reply] 13700 nM

[ask] Now give it for Cc1cc2c(cc1C)[n+](Cc1ccc3ccccc3c1)cn2Cc1ccc2ccccc2c1.[Br-] too.
[reply] 2470 nM

[ask] Then [Br-].c1ccc2cc(Cn3c[n+](Cc4ccc5ccccc5c4)c4ccccc43)ccc2c1 ?
[reply] 2980 nM

----------
run-description: Growth inhibition of human NCI-H23 cells after 48 hrs by SRB assay
Assay type: functional
assay-setup: NCI-H23, 48 h
readout-kind: TGI (nM)
Form entry: value (nM) — number only.

chemical-string | TGI (nM)
Cc1cc2c(cc1C)[n+](Cc1ccc3ccccc3n1)cn2Cc1ccc2ccccc2n1.[Cl-] | 3530
CCCc1n(Cc2ccc3ccccc3c2)c2ccccc2[n+]1Cc1ccc2ccccc2c1.[Br-] | 1600

[ask] Which TGI reading was recorded for the compound Cc1cc2c(cc1C)[n+](Cc1ccc3ccccc3c1)cn2Cc1ccc2ccccc2c1.[Br-] ?
[reply] 2280

[ask] Please do the same for COCCOCCOCc1n(Cc2ccc3ccccc3n2)c2ccccc2[n+]1Cc1ccc2ccccc2c1.[Br-] as well.
[reply] 10300

[ask] Please give the result for CCCCc1n(Cc2ccc3ccccc3c2)c2ccccc2[n+]1Cc1ccc2ccccc2c1.[Br-] too.
[reply] 1700

[ask] What about this compound? Cc1n(Cc2ccc3ccccc3c2)c2ccccc2[n+]1Cc1ccc2ccccc2c1.[Br-]
[reply] 2760

[ask] // query: [Br-].c1ccc2cc(Cn3c[n+](Cc4ccc5ccccc5c4)c4ccccc43)ccc2c1
[reply] 2510

[ask] Now consider OCCCc1n(Cc2ccc3ccccc3c2)c2ccccc2[n+]1Cc1ccc2ccccc2c1.[Br-] and answer again.
[reply] 8170

[ask] Can you handle [Cl-].c1ccc2nc(Cn3c[n+](Cc4ccc5ccccc5n4)c4ccccc43)ccc2c1 next?
[reply] 10300
